Record: IC50 reported on human Factor XIa (Homo sapiens (Human), UniProt P03951).
Sequence (P03951 388-625): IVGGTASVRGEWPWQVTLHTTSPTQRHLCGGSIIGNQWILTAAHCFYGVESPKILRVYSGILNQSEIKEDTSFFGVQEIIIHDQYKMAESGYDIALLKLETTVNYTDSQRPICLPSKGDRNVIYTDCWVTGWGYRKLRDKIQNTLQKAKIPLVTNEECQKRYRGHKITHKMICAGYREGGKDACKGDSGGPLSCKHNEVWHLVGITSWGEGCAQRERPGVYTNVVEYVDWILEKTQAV
Sequence (P03951 19-387 partner): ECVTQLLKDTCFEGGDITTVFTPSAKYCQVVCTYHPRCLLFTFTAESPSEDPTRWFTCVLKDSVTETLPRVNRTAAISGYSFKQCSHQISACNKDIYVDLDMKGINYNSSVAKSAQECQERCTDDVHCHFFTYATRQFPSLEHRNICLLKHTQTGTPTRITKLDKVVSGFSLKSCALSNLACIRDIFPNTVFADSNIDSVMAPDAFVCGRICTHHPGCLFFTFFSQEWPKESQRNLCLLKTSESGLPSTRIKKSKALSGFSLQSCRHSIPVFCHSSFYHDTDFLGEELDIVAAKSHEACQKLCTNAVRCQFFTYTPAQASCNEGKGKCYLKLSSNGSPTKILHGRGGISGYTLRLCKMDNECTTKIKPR
Numbers only, in nM.

Request: Give reported IC50 value for `COC(=O)Nc1ccc2c(c1)NC(=O)C(C)(C)CCC[C@H](c1ccc(-c3cc(Cl)ccc3-n3cc(C(F)(F)F)cn3)c[n+]1[O-])c1nc-2c(C)[nH]1`
Response: 0.89

Request: Let me know recorded IC50 for `COC(=O)Nc1ccc2c(c1)NC(=O)C(C)(C)CCC[C@H](c1ccc(-c3cc(Cl)cnc3OC(F)F)c[n+]1[O-])c1nc-2c(C)[nH]1` , thanks.
Response: 4.4

Request: Note down IC50 recorded for `COC(=O)Nc1ccc2c(c1)NC(=O)C(C)(C)CCC[C@H](c1ccc(-c3c(-n4cc(C(F)(F)F)cn4)ccc(F)c3F)c[n+]1[O-])c1nc-2c(C)[nH]1`
Response: 1.5

Now for the molecule whose IC50 we want.
Request: Check the records and state IC50 for `COC(=O)Nc1ccc2c(c1)NC(=O)C(C)(C)CCC[C@H](c1ccc(-c3cc(F)ccc3-n3cc(C(F)(F)F)cn3)c[n+]1[O-])c1nc-2c(C)[nH]1`
Response: 2.9
